biological target: UniProt P0DTD1; assay: surface plasmon resonance (SPR) binding to immobilized full-length biotinylated nsp14; design: species or system SARS-CoV-2; details: SPR steady-state 1:1 binding model; n = 3; read-out: steady-state KD
Recorded Metric: pKd
Notebook: values listed as pKd are -log10 of the concentration (mol/L).

Reported pKd of "Nc1ncnc2c1ncn2[C@@H]1O[C@H](CSCc2ccc(Cl)cc2)[C@@H](O)[C@H]1O" : 6.26

----------
# nsp14 Inhibition % (100µM) Exp 1 values compiled below
target: SARS-CoV-2 nsp14 MTase (Severe acute respiratory syndrome coronavirus 2, UniProt P0DTD1); assay: biochemical; format: biochemical; conditions: compound 100µM; replicate experiment 1
Supply the numeric figure in %, leaving out any unit text.

Example entries begin here.
{"Molecule": "O=C(N/N=C/[C@H](O)[C@H]1OC(=O)[C@@H](O)[C@H]1O)c1ccncc1", "Measurement": 26}
{"Molecule": "O=P(O)(O)OC1OC(n2cnc3c(NCc4ccc(F)cc4)ncnc32)C(O)C1O (stereo not drawn)", "Measurement": 4}
{"Molecule": "CN(CC(O)C(O)C(O)C(O)CO)CN1C(=O)C(=O)c2ccccc21 (stereo not drawn)", "Measurement": 46}
{"Molecule": "O=C(CN1CCOCC1)C(O)C(O)C(O)CO (stereo not drawn)", "Measurement": 73}
{"Molecule": "OCC(O)C(O)C(O)C(O)c1nc2ccccc2s1 (stereo not drawn)", "Measurement": 86}

Sample "O=C(O)c1nc(N=Nc2ccc(S(=O)(=O)O)cc2)[nH]c1C(=O)O" ; nsp14 Inhibition % (100µM) Exp 1 observed: 65

Form field nsp14 Inhibition % (100µM) Exp 1, entry "CC(C)=CCNc1ncnc2c1ncn2[C@@H]1O[C@H](COP(=O)(O)O)[C@@H](O)[C@H]1O" : 9

Query Cn1c(=O)c2c(ncn2CCCNCC(O)c2ccc(O)c(CO)c2)n(C)c1=O (stereo not drawn) yields nsp14 Inhibition % (100µM) Exp 1 of 15

Recorded nsp14 Inhibition % (100µM) Exp 1 (molecule NC(CSCCSCCSCC(N)C(=O)O)C(=O)O (stereo not drawn) ): 89

----------
molecular target: UniProt:P0DTD1; assay: biochemical; format: biochemical; conditions: compound 100µM; replicate experiment 1
Recorded Metric: nsp14 Inhibition % (100µM) Exp 1 (%)
Record the value in %, omitting the unit from your answer.

{"Compound": "O=C1NC(=O)C(C(=O)C(=O)Nc2cccc(C(F)(F)F)c2)C(=O)N1", "nsp14 Inhibition % (100µM) Exp 1 [%]": 26}
{"Compound": "Nc1ncnc2c1ncn2[C@H]1C[C@H](O)[C@@H](COP(=O)(O)O)O1", "nsp14 Inhibition % (100µM) Exp 1 [%]": 13}
{"Compound": "Nc1ncnc2c1ncn2C1OC(C(=O)NCC(=O)O)C(O)C1O (centres unmarked)", "nsp14 Inhibition % (100µM) Exp 1 [%]": 9}
{"Compound": "NC(CCC(=O)NC(CSCc1ccc(F)cc1)C(=O)NCC(=O)O)C(=O)O (centres unmarked)", "nsp14 Inhibition % (100µM) Exp 1 [%]": 8}

# ---- query compound ----
What the record says about "O=C(O)c1ccc(C(=O)c2ccc(C(=O)c3ccc(C(=O)O)cc3)cc2)cc1" : nsp14 Inhibition % (100µM) Exp 1 is 64
